A collection of sequences and their measured protein stability index
- procedure text: protein stability index of a GFP-peptide fusion (yeast GPS) (PSI 1-4); higher = more stable; sorted into four equal gates, so the index is relative within each strain
- conditions: san1∆
Answer as a number with no unit attached.

As a guide, the following entries are already answered.
• KQLEKRDYQRINKNSKI [POP4] = 2.02
• VNEPTKNEEAEIEVDEM [RPN1] = 3.08
• NAKDIQIPVYDTFDGSD [FAS1] = 2.07
• TFPPEVLARISPELSLQ [RRP43] = 2.53
• SLCTVWKPNPSYDVENV [SRB5] = 2.08

Per the record, FMKKLRAAKLAAPENEK [RPS15] has protein stability index of 2.48

Per the record, SAEEQLRKIDMLQKKLV [SRB7] has protein stability index of 1.88

Per the record, EYEELKEKIEKLSKSAT [SMC1] has protein stability index of 2.98

Per the record, TTTSNTSGTNIAGTFNV [YOR098C/NUP1] has protein stability index of 2.5
